Assay text: Confirmation screen for delayed death inhibitors of the malarial parasite plastid, 96 hour incubation; also: nearly all actives have a fitted effect of over 60% in size
Experimental context: P. falciparum luciferase growth in erythrocytes; series mostly up to 28.7 µM
Out of some 2,300 compounds screened, about 1,400 (61%) were called active. About 29% were inconclusive and are not listed. Calls follow the shape of the dose curve; as a rule, active = well fitted inhibition curve with a large enough effect; inconclusive = small, poorly fitted or top-dose-only effect, or effect the other way; inactive = no such curve, though single readings can be large or run the other way. So high a share suggests a set chosen from earlier hits. This is one part of the list.
Please state which outcome applies, choosing from active, inactive

CC1CCN(CCc2nc3cc(NS(=O)(=O)c4ccc(F)cc4)ccc3n2C)CC1	active

Query string: Hi, do you know how Cn1c(CCN2CCCCC2)nc2cc([N+](=O)[O-])ccc21 came out in this test?
Result string: inactive

Query string: Hi, do you know how COc1ccc(NC(=O)Cc2ccc(Cl)cc2)cc1S(=O)(=O)N1CCCCC1 came out in this test?
Result string: active

Query string: Hi, do you know how C=CCNC(=O)c1onc(CSc2cccc(Cl)c2)c1C(=O)O came out in this test?
Result string: inactive

Query string: Hi, do you know how CC1CCCN(c2ccc(F)cc2N)C1 (configuration not stated) came out in this test?
Result string: active

Query string: Hi, do you know how CCn1c(=O)cc(C(=O)OC)sc1=Nc1ccc(F)c(F)c1 came out in this test?
Result string: inactive

Query string: Hi, do you know how Cc1cc(C)cc(NC(=O)C2C3C=CC4(O3)C2C(=O)N(CCCN2CCCC2)C4C(=O)NC2CCCC(C)C2C)c1 (configuration not stated) came out in this test?
Result string: active
